# Subject of test: androgen receptor (AR) (Homo sapiens, UniProt P10275, T878A)
# Construct: endogenous in cells
# Sequence (P10275 whole entry T878A): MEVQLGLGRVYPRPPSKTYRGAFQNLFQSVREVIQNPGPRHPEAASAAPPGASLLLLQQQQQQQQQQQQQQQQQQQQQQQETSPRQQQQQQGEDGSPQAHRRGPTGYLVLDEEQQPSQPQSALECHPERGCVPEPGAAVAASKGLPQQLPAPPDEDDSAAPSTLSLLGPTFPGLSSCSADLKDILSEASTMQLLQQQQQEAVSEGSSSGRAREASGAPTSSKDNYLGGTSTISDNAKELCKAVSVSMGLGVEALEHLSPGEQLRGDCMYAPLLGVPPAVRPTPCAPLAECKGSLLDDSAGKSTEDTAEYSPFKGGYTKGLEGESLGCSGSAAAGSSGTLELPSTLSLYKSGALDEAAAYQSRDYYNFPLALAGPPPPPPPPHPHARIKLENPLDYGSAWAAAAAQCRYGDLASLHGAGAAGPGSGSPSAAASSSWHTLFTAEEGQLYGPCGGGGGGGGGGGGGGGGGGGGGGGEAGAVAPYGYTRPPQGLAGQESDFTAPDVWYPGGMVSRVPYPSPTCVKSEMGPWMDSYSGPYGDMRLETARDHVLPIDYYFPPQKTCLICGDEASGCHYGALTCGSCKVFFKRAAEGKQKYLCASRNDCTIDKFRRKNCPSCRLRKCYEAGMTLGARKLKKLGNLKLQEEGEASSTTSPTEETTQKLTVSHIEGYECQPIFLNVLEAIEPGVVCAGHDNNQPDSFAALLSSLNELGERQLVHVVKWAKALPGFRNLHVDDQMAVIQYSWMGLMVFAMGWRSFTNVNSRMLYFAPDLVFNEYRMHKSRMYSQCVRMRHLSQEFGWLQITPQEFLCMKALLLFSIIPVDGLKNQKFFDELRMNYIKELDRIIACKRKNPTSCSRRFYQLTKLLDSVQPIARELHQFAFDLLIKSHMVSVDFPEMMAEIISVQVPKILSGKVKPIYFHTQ
# Assay notes: Androgen-induced PSA-luciferase assay, Luciferase Assay A (LNCaP transiently transfected with PSA (6.1 kb)-luciferase reporter)
# Assay context: LNCaP cells, 1 h pretreatment, R1881 (1 nM) 24 h, read-out: PSA-Luc IC50 Range
In this section, each of the compounds is paired with its reported IC50.

Take a look at these entries with their results.
CC(C)(c1ccc(OCc2ccnc(NS(C)(=O)=O)n2)cc1)c1cc(Cl)c(CN2CCOCC2)c(Cl)c1 [Compound A159] ... > 2 µM
CC(C)(c1ccc(OCc2ccnc(NS(C)(=O)=O)n2)cc1)c1cc(Cl)c(OC2CN(CC(F)(F)F)C2)c(C#N)c1 [Compound A165] ... > 2 µM
CC(C)(c1ccc(N2CCOC(CNS(C)(=O)=O)C2)cc1)c1cc(Cl)c(OCCCl)c(C#N)c1 (stereo not shown) [Compound A14] ... 0.5 to 2 µM

Next compound, IC50 to be filled in.
Consider the compound CC(C)(c1ccc(OCc2ccnc(NS(C)(=O)=O)n2)cc1)c1cc(Cl)c(N2CC3CC2CO3)c(C#N)c1 (stereo not shown) [Compound A149] and give its measured IC50.
0.5 to 2 µM
